# experimental-target: T1, pCD163-SRCR1-9-huFc (porcine, UniProt Q2VL90 47-1028, limits assumed)
# T1 construct: also called pCD163:SRCR1-9-Fc; pCD163SRCR1-9-Fc; not shown: human Fc (huFc)
# T1 sequence: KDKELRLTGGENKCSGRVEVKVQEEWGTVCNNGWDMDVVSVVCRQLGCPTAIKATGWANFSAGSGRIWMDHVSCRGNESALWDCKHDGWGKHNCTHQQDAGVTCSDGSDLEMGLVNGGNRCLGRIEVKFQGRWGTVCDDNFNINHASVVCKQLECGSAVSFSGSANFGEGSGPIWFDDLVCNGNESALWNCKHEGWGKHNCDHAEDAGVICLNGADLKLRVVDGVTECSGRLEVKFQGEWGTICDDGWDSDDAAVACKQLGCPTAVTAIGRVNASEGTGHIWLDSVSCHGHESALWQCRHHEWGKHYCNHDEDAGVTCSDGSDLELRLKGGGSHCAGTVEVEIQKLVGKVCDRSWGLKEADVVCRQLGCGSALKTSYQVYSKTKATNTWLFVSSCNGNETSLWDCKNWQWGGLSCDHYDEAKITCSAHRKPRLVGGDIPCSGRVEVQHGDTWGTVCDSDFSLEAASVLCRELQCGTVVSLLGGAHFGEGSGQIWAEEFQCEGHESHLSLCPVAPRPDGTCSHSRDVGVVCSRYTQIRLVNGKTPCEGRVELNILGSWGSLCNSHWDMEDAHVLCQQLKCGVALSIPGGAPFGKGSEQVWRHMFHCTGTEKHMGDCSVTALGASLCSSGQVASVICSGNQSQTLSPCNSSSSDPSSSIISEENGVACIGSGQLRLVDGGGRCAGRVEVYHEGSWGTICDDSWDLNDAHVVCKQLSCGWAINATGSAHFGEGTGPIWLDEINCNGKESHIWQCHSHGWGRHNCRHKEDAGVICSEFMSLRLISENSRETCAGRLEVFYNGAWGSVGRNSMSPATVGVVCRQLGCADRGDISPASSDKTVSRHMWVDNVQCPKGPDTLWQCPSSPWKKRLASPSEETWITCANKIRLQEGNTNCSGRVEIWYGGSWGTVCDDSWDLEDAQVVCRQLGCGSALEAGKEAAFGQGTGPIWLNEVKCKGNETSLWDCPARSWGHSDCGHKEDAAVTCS
# assay-overview: ELISA, periplasmic extract on coated antigen
Label T when O.D. 450 is strictly below 0.6 O.D. 450; at or above that, label F.

>  <binder>
VHH 019 (3E11) (VHH, Llama single domain antibody; also called 47(#19); VHCDR3 47(#19); not shown: tags: c-myc tag in periplasmic extract (ELISA, FACS); FLAG and His tags in purified VHH (SPR, infection assays)) VHH: QVQLQESGGGLVQVGSSLRLSCVTSGRTPSRYVMGWFRQAPGQEREFVAAISWSGRAPYADSVKGRFTISRDNAKNTVYLQMNSLKPEDTGVYYCAGGEGAIKWTTLDAYDYWGQGTQVTVSS

>  <assigned-class>
F

$$$$
>  <binder>
VHH 018 (3E01) (VHH, Llama single domain antibody; also called 49(#18); VHCDR3 49(#18); not shown: tags: c-myc tag in periplasmic extract (ELISA, FACS); FLAG and His tags in purified VHH (SPR, infection assays)) VHH: QVQLQESGGGLVQVGGSLRLSCVASGRAPSRYVMGWFRQAPGQEREFVAGIAWSGRAPYADSVKGRSTISRDNAKNTVYLQMNSLKPEDTGVYYCAGGEGAIRWTTLDAYDYWGQGTQVTVSS

>  <assigned-class>
F

$$$$
>  <binder>
VHH 011 (2B06) (VHH, Llama single domain antibody; also called 57(#11); VHCDR3 57(#11); not shown: tags: c-myc tag in periplasmic extract (ELISA, FACS); FLAG and His tags in purified VHH (SPR, infection assays)) VHH: EVQLVESGGGLVQAGGSLRLSCAASGRTLSVYGTGWFRQAPGKEREFVAGISGTTGSTLYADSVKGRFTISRDNAKNTVYLQMNSLKSEDTALYYCAAGGRVYITTSSWAYWGQGTQVTVSS

>  <assigned-class>
T

$$$$
>  <binder>
VHH 015 (2G01) (VHH, Llama single domain antibody; also called 150(#15); VHCDR3 150(#15); not shown: tags: c-myc tag in periplasmic extract (ELISA, FACS); FLAG and His tags in purified VHH (SPR, infection assays)) VHH: QVQLVESGGGLVQAGDTLRLSCTASGRTFSSYSMGWFRQAPGKEREFVAAITWNGYITNYADSVKGRFTISRDNTKNTVFLQMNSLKPEETAVYYCAATTFSTTSPISRTYNYWGPGTQVTVSS

>  <assigned-class>
F

$$$$
>  <binder>
VHH 001 (1B02) (VHH, Llama single domain antibody; also called 144(#1); VHCDR3 144(#1); not shown: tags: c-myc tag in periplasmic extract (ELISA, FACS); FLAG and His tags in purified VHH (SPR, infection assays)) VHH: EVQLVESGGGLVQAGGSLSLSCAASGGTLAMYAMSWFRQAPGKDRKFVAAINTSGRYSRYADSVKGRFTISRDNAKNTATLQMNSLEPEDTAVYYCAATDKGNWALAMSYDYWGQGTQVTVSS

>  <assigned-class>
T

$$$$
>  <binder>
VHH 020 (3H11) (VHH, Llama single domain antibody; also called 48(#20); VHCDR3 48(#20); not shown: tags: c-myc tag in periplasmic extract (ELISA, FACS); FLAG and His tags in purified VHH (SPR, infection assays)) VHH: QVQLQESGGGLVQVGGSLRLSCVASGRTPSRYVMGWFRQAPGQEREFVAGIAWSGRAPYADSVKGRFVISRDSAKNTVYLQMNSLKSEDTGVYYCAGGEGAILWTTPGAYNYWGQGTQVTVSS

>  <assigned-class>
F

$$$$
>  <binder>
VHH 023 (4E10) (VHH, Llama single domain antibody; also called 70(#23); VHCDR3 70(#23); not shown: tags: c-myc tag in periplasmic extract (ELISA, FACS); FLAG and His tags in purified VHH (SPR, infection assays)) VHH: QVQLVESGGGLVQAGGSLRLSCVASSRTSSTYAMGWFRQGPGKERDFVAIISFGGTFYADSVKGRFTISRDNAKNTVYLQMNSLKPEDTAVYYCAAGRTLSKRADSYASWGQGTQVTVSS

>  <assigned-class>
T

$$$$
>  <binder>
VHH 008 (1H01) (VHH, Llama single domain antibody; also called 78(#8); VHCDR3 78(#8); not shown: tags: c-myc tag in periplasmic extract (ELISA, FACS); FLAG and His tags in purified VHH (SPR, infection assays)) VHH: QVQLVESGGGLVQAGGSLRLSCAASGRTFGTYSMGWFRQAPGKEREFVAAHRWSGSAYYAEHADSVEGRFTISRDYAKNMLYLQMNSLKHEDTAVYYCAAGVGSEAQYRYWGRGTQVTVSS

>  <assigned-class>
T

$$$$
>  <binder>
VHH 002 (1B04) (VHH, Llama single domain antibody; also called 76(#2); VHCDR3 76(#2); not shown: tags: c-myc tag in periplasmic extract (ELISA, FACS); FLAG and His tags in purified VHH (SPR, infection assays)) VHH: QVQLVESGGGLVQAGGSLRLSCAASGLTFVTYSMGWFRQAPGKEREFVAAHRWSGSAYYAEHADSVEGRFTISRDYAKNMLYLQMNSLKHEDTAVYYCAAGVGSAAQYRYWGRGTQVTVSS

>  <assigned-class>
T

$$$$
>  <binder>
VHH 012 (2C07) (VHH, Llama single domain antibody; also called 41(#12); VHCDR3 41(#12); not shown: tags: c-myc tag in periplasmic extract (ELISA, FACS); FLAG and His tags in purified VHH (SPR, infection assays)) VHH: QLQLVESGGGLVQAGGSLRLSCVASGRTFSRYAMGWFRQAPGKEREFVAAIAWSTGSTYYANSVKGRFAISGDNAKNTVYLQMNSLKPEDTAVYYCAAETRYCSGFGCLDPRTYGSWGQGTQVTVSS

>  <assigned-class>
T

$$$$
>  <binder>
VHH 017 (3D03) (VHH, Llama single domain antibody; also called 29(#17); VHCDR3 29(#17); not shown: tags: c-myc tag in periplasmic extract (ELISA, FACS); FLAG and His tags in purified VHH (SPR, infection assays)) VHH: QLQLVESGGGLVQPGGSLRLSCAASGFTLDDYTIGWFRQAPGKEREGVSCINSITSNTYYADSVKGRFTISRDNAKNTVYLQMNSLTAEDTAIYYCAADSGLFSGSSCLKYRAMRFGSWGQGTQVTVSS

>  <assigned-class>
T

$$$$
>  <binder>
VHH 016 (2H11) (VHH, Llama single domain antibody; also called 77(#16); VHCDR3 77(#16); not shown: tags: c-myc tag in periplasmic extract (ELISA, FACS); FLAG and His tags in purified VHH (SPR, infection assays)) VHH: EVQLVESGGGLVQAGGSLRLSCAASGRTFAPGSMGWFRQAPGKEREFVAAHRWSGSAYYADYADSVEGRFTISRDYAKNMVYLQMNSLKPGDTAVYYCAAGVGSAAQYTYWGRGTQVTVSS

>  <assigned-class>
T

$$$$
